Cited source: patent US20130023483A1

target: chemokine receptor CXCR7 (RDC1) (UniProt P25106); experiment: cell-based or functional assay
Sequence (P25106 whole entry): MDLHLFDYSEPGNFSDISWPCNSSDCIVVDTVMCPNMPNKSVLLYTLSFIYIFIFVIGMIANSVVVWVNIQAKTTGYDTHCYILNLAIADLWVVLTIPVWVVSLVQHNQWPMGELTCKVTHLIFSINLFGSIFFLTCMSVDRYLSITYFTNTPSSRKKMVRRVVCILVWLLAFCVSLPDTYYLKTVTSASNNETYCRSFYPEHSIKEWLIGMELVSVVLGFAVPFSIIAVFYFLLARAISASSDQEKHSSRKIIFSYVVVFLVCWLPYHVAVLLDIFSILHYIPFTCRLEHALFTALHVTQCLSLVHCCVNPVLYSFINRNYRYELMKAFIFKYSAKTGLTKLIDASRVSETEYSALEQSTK
ASSAY METRIC: β-Arrestin EC50 (nM)

[A] cyclo(-Trp-^DThr-Tyr-Arg-^DPro-Azt-) (peptide)
[B] cyclo(-1Nal-^DArg-Ile-Arg-^DPro-Azt-) (peptide)
[C] cyclo(-Trp-^DHis-Trp-Arg-^DPro-Azt-) (peptide)
[D] cyclo(-1Nal-^DHis-Ile-Arg-^DPro-Azt-) (peptide)
Can you order these entries from above by β-Arrestin EC50? Start with the largest number and work down. Please respond with the labels ordered as the question requires.
C, A, D, B
(C: 342 nM, A: 148 nM, D: 85.7 nM, B: 41.2 nM)

[A] cyclo(-Trp-^DArg-Trp-Ile-^DPro-Azt-) (peptide)
[B] cyclo(-His(Me)-^DPhe-Trp-Arg-^DPro-Tic-) (peptide)
Lab notebook, comparison: A versus B , higher β-Arrestin EC50 goes to which? Please indicate the selected item by its label.
A

[A] cyclo(-Trp-^DPhe-Trp-Arg-^DPro-(4S)-Hyp(Bn)-) (peptide)
[B] cyclo(-1Nal-^DHis-Tyr-Arg-^DPro-Azt-) (peptide)
[C] cyclo(-1Nal-^DArg-Trp-Arg-^DPro-Azt-) (peptide)
[D] cyclo(-Trp-^DPhe-Trp-Arg-^DPro-Tiq-) (peptide)
Order these by β-Arrestin EC50, descending, and give the full ranking. Please respond with the labels ordered as the question requires.
C, B, A, D
(C: 146 nM, B: 44.4 nM, A: 1.7 nM, D: 0.4 nM)

###

target: chemokine receptor CXCR7 (RDC1); test: cell-based or functional assay
ASSAY METRIC: β-Arrestin EC50 (nM)

Please report the recorded β-Arrestin EC50 for cyclo(-Trp-^DArg-Trp-Arg-^DPro-Azt-) (peptide) .
170

[P] cyclo(-Trp-^DHis-Ile-Arg-^DPro-Azt-) (peptide)
[Q] cyclo(-Trp-^DArg-Ile-Arg-^DPro-Azt-) (peptide)
Between item P and item Q , which reported β-Arrestin EC50 is smaller? Please indicate the selected item by its label.
Q
(Q: 47.7 nM, P: 344 nM)
